Molecular target: T1, human BASIGIN recombinant protein (human, UniProt P35613-2 22-205, limits assumed)
T1 construct: also called hBASIGIN
T1 sequence (looked up): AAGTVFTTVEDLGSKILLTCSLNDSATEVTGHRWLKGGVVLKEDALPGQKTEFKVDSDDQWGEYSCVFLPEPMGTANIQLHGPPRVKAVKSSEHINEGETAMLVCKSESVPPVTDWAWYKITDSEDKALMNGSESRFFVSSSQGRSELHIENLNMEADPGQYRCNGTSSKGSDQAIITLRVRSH
Assay: SPR (ProteOn XPR36), human BASIGIN amine-coupled on chip, antibody as analyte
Procedure: The affinity of the antibody was measured with ProteOn XPR36 (Bio-Rad). The GLC chip (Bio-Rad, 1765011) was activated with 0.04 M EDC+0.01 M sulfo-NHS (Bio-Rad). […] The data were analyzed using the Kinetic-Langmuir model. The binding affinity of the three humanized antibodies, the mouse antibody 6H8 and the chimeric antibody c6H8 were also determined by SPR (for detailed steps, please refer to the description in example 6), data were shown in Table 2.
Quantity kind: Kd (nM)

INSERT INTO results (binder, quantity_kind, unit_name, value_reported) VALUES
  ('humanized antibody HP6H8-2 (antibody, V domains shown, Derived from scFv clone 11245; also called WBP229-204; pCI-WBP229-204L/H) VH: EVQLVESGGGLVQPGGSLKLSCAASGFTFSNFWMNWVRQAPGKGLEWVAEIRLKSNNYATHYAESVKGRFTISRDDSKNTLYLQMNSLRTEDTAVYYCTSYDYEYWGQGTLVTVSA VL: DIQMTQSPASLSASVGDRVTISCKASENVGTYVSWYQQKPGQTPKLLIYGASNRYTGVPSRFSGSGSGTDFTLTISSLQPDDFATYYCGQSYSYPFTFGSGTKLEIK', 'Kd', 'nM', 0.0583),
  ('chimeric antibody c6H8 (antibody, V domains shown, Mouse 6H8 variable regions fused to a human constant region of IgG1 isotype; also called chimeric 6H8) VH: EVKLEESGGGLVQPGGSMKLSCVASGFTFSNFWMNWVRQSPEKGLEWVAEIRLKSNNYATHYAESVKGRFTISRDDSKSSVYLQMNNLRTEDTGIYYCTSYDYEYWGQGTLVTVSA VL: NIVMTQSPKSMSMSVGERVTLSCKASENVGTYVSWYQQKPEQSPKLLIYGASNRYTGVPDRFTGSGSATDFTLTISSVQAEDLADYHCGQSYSYPFTFGSGTKLEIK', 'Kd', 'nM', 0.452),
  ('humanized antibody HP6H8-1 (antibody, V domains shown, Derived from scFv clone 11305; also called WBP229-205; pCI-WBP229-205L/H) VH: EVQLVESGGGLVQPGGSLRLSCAASGFTFSNFWMNWVRQAPGKGLEWVSEIRLKSNNYATHYAESVKGRFTISRDDSKNTLYLQMNSLKTEDTAVYYCTSYDYEYWGQGTLVTVSA VL: DIQMTQSPSTLSASVGDRVTLSCKASENVGTYVSWYQQKPGKAPKLLIYGASNRYTGVPSRFTGSGSGTDFTLTISSLQPEDFATYYCGQSYSYPFTFGSGTKLEIK', 'Kd', 'nM', 0.0905),
  ('mouse monoclonal antibody HAb18GC2 (6H8) (antibody, V domains shown, Mouse monoclonal from hybridoma CCTCC-C200636; also called mouse 6H8; Mouse monoclonal 6H8) VH: EVKLEESGGGLVQPGGSMKLSCVASGFTFSNFWMNWVRQSPEKGLEWVAEIRLKSNNYATHYAESVKGRFTISRDDSKSSVYLQMNNLRTEDTGIYYCTSYDYEYWGQGTLVTVSA VL: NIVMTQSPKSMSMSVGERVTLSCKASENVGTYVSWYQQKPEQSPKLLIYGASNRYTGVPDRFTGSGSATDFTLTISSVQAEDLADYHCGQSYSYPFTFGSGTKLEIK', 'Kd', 'nM', 1.17);
